- Tested on: 156681-154-R-J1 tumor spheroid viability
- test-method-notes: Anticancer human tumor 156681-154-R-J1 patient-derived melanoma cell line growth inhibition
- recorded-conditions: second compound 0.000949 µM; first compound 1 µM; stronger effect = lower value; spheroids with HUVEC and MSC
- Description: Multicellular complex tumor spheroid response to DNA repair inhibitors in combination with DNA-damaging drugs This study explores the anticancer activities of DNA-damaging drugs and inhibitors of DNA damage repair, both as single agents and in combinations. […] Twenty-six patient-derived or established malignant cell lines were evaluated representing sarcoma, melanoma, small cell lung cancer (SCLC), non-small cell lung cancer (NSCLC), as well as bladder, ovarian and pancreatic cancers. […]
property-measured: viability, T/C (%)
Write the number in % without appending the unit.

Incoming: Give the value of viability, T/C reported for the following: [2H]c1nc(C)nc([2H])c1-c1cc(NC[C@@H](C)c2cccc3c(C(=O)NC)ccnc23)ncn1 + COc1cc2c(cc1O)CCNC21CSC2c3c(OC(C)=O)c(C)c4c(c3C(COC1=O)N1C(O)C3Cc5cc(C)c(OC)c(O)c5C(C21)N3C)OCO4
Outgoing: 4.33

Incoming: For CC(C)n1c(=O)n(C)c2cnc3cc(F)c(-c4ccc(OCCCN5CCCCC5)nc4)cc3c21 + COc1cc2c(cc1O)CCNC21CSC2c3c(OC(C)=O)c(C)c4c(c3C(COC1=O)N1C(O)C3Cc5cc(C)c(OC)c(O)c5C(C21)N3C)OCO4 , write its viability, T/C.
Outgoing: 3.82

Incoming: For COc1ccc([C@@H](O)c2cc(-c3ncnc4cc(N5CCOCC5)ccc34)c(F)cc2Cl)nn1 + COc1cc2c(cc1O)CCNC21CSC2c3c(OC(C)=O)c(C)c4c(c3C(COC1=O)N1C(O)C3Cc5cc(C)c(OC)c(O)c5C(C21)N3C)OCO4 , write its viability, T/C.
Outgoing: 0.1

Incoming: Supply recorded viability, T/C for COc1cc(C)[nH]c(=O)c1CN1CCc2c(Cl)cc(C(OC)C3COC3)c(Cl)c2C1=O (centres undefined) + COc1cc2c(cc1O)CCNC21CSC2c3c(OC(C)=O)c(C)c4c(c3C(COC1=O)N1C(O)C3Cc5cc(C)c(OC)c(O)c5C(C21)N3C)OCO4 here.
Outgoing: 5.47

* * *

- Tested on: 156681-154-R-J1 tumor spheroid viability
- test-method-notes: Anticancer human tumor 156681-154-R-J1 cell line growth inhibition;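 further: spheroids exposed to compounds for 7 days before readout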;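 on viability, T/C: percent of vehicle control viability where 100% = DMSO-treated spheroids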
- recorded-conditions: second compound 0.0949 µM; first compound 0.316 µM; stronger effect = lower value; spheroids with HUVEC and MSC
Each entry below carries its reported viability, T/C.
Numbers only here, please. The scale is %.

Example entries and their recorded answers appear below.
[
  {
    "compound": "CC(C)n1c(=O)n(C)c2cnc3cc(F)c(-c4ccc(OCCCN5CCCCC5)nc4)cc3c21 + CC[C@@]1(O)C(=O)OCc2c1cc1n(c2=O)Cc2cc3c(CN(C)C)c(O)ccc3nc2-1",
    "unit-descriptor": "%",
    "viability, T/C": 10.8
  },
  {
    "compound": "[2H]c1nc(C)nc([2H])c1-c1cc(NC[C@@H](C)c2cccc3c(C(=O)NC)ccnc23)ncn1 + CC[C@@]1(O)C(=O)OCc2c1cc1n(c2=O)Cc2cc3c(CN(C)C)c(O)ccc3nc2-1",
    "unit-descriptor": "%",
    "viability, T/C": 27.4
  },
  {
    "compound": "Cc1cc(C)c(CNC(=O)c2cc(-c3ccc(CN4CCOCC4)cc3)cc3c2cnn3C2CCCC2)c(=O)[nH]1 + CC[C@@]1(O)C(=O)OCc2c1cc1n(c2=O)Cc2cc3c(CN(C)C)c(O)ccc3nc2-1",
    "unit-descriptor": "%",
    "viability, T/C": 25.1
  },
  {
    "compound": "COc1ccc([C@@H](O)c2cc(-c3ncnc4cc(N5CCOCC5)ccc34)c(F)cc2Cl)nn1 + CC[C@@]1(O)C(=O)OCc2c1cc1n(c2=O)Cc2cc3c(CN(C)C)c(O)ccc3nc2-1",
    "unit-descriptor": "%",
    "viability, T/C": 30.3
  }
]

Incoming: State measured viability, T/C of the compound COc1cc(C)[nH]c(=O)c1CN1CCc2c(Cl)cc(C(OC)C3COC3)c(Cl)c2C1=O (stereo unspecified) + CC[C@@]1(O)C(=O)OCc2c1cc1n(c2=O)Cc2cc3c(CN(C)C)c(O)ccc3nc2-1 with 156681-154-R-J1 tumor spheroid viability.
Outgoing: 34.6

Incoming: Jot down viability, T/C (156681-154-R-J1 tumor spheroid viability) of CC1COCCN1c1cc(-c2ccnn2C)c2ccnc(-c3ccn[nH]3)c2n1 (stereo unspecified) + CC[C@@]1(O)C(=O)OCc2c1cc1n(c2=O)Cc2cc3c(CN(C)C)c(O)ccc3nc2-1 .
Outgoing: 28.3

* * *

- System: 156681-154-R-J1 tumor spheroid viability
- test-method-notes: Anticancer human tumor 156681-154-R-J1 cell line growth inhibition;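 further: spheroids exposed to compounds for 7 days before readout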;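 on viability, T/C: percent of vehicle control viability where 100% = DMSO-treated spheroids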
- recorded-conditions: second compound 0.0003 µM; first compound 0.316 µM; stronger effect = lower value; spheroids with HUVEC and MSC
So basically, if viability, T/C comes in under 50% it's met, and if it's 50% or more it's not met.

[
  {
    "compound": "CC(C)n1c(=O)n(C)c2cnc3cc(F)c(-c4ccc(OCCCN5CCCCC5)nc4)cc3c21 + COc1cc2c(cc1O)CCNC21CSC2c3c(OC(C)=O)c(C)c4c(c3C(COC1=O)N1C(O)C3Cc5cc(C)c(OC)c(O)c5C(C21)N3C)OCO4",
    "tested-on": "156681-154-R-J1 tumor spheroid viability",
    "group-label": "not met"
  }
]

In the following, a different compound is considered.
Incoming: Is it true that viability, T/C reported for Cc1cc(C)c(CNC(=O)c2cc(-c3ccc(CN4CCOCC4)cc3)cc3c2cnn3C2CCCC2)c(=O)[nH]1 + COc1cc2c(cc1O)CCNC21CSC2c3c(OC(C)=O)c(C)c4c(c3C(COC1=O)N1C(O)C3Cc5cc(C)c(OC)c(O)c5C(C21)N3C)OCO4 is less than 50%?
Outgoing: not met

* * *

Known IC50 of a selection of compounds
- Tested on: 156681-154-R-J1 tumor spheroid viability
- test-method-notes: Anticancer human tumor 156681-154-R-J1 cell line growth inhibition;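 further: spheroids exposed to compounds for 7 days before readout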
- recorded-conditions: curve of first compound; second compound 0.000949 µM; spheroids with HUVEC and MSC

Answered cases to consult:
[
  {
    "compound": "Cc1sc2c(c1C)C(c1ccc(Cl)cc1)=NC(CC(=O)Nc1ccc(O)cc1)c1nnc(C)n1-2 (stereo unspecified) + COc1cc2c(cc1O)CCNC21CSC2c3c(OC(C)=O)c(C)c4c(c3C(COC1=O)N1C(O)C3Cc5cc(C)c(OC)c(O)c5C(C21)N3C)OCO4",
    "IC50": "< 9.49 nM"
  },
  {
    "compound": "O=C(c1cc(Cc2n[nH]c(=O)c3ccccc23)ccc1F)N1CCN(C(=O)C2CC2)CC1 + COc1cc2c(cc1O)CCNC21CSC2c3c(OC(C)=O)c(C)c4c(c3C(COC1=O)N1C(O)C3Cc5cc(C)c(OC)c(O)c5C(C21)N3C)OCO4",
    "IC50": "< 94.9 nM"
  },
  {
    "compound": "Cn1ncnc1[C@H]1c2n[nH]c(=O)c3cc(F)cc(c23)N[C@@H]1c1ccc(F)cc1 + COc1cc2c(cc1O)CCNC21CSC2c3c(OC(C)=O)c(C)c4c(c3C(COC1=O)N1C(O)C3Cc5cc(C)c(OC)c(O)c5C(C21)N3C)OCO4",
    "IC50": "< 9.49 nM"
  },
  {
    "compound": "CC(C)n1c(=O)n(C)c2cnc3cc(F)c(-c4ccc(OCCCN5CCCCC5)nc4)cc3c21 + COc1cc2c(cc1O)CCNC21CSC2c3c(OC(C)=O)c(C)c4c(c3C(COC1=O)N1C(O)C3Cc5cc(C)c(OC)c(O)c5C(C21)N3C)OCO4",
    "IC50": "< 31.6 nM"
  },
  {
    "compound": "COc1ccc([C@@H](O)c2cc(-c3ncnc4cc(N5CCOCC5)ccc34)c(F)cc2Cl)nn1 + COc1cc2c(cc1O)CCNC21CSC2c3c(OC(C)=O)c(C)c4c(c3C(COC1=O)N1C(O)C3Cc5cc(C)c(OC)c(O)c5C(C21)N3C)OCO4",
    "IC50": "< 31.6 nM"
  }
]

Now look at this one.
Incoming: Specify IC50 for CNCc1ccc(-c2cc(-c3nc(-c4ccc(S(=O)(=O)C(C)C)cc4)cnc3N)on2)cc1 + COc1cc2c(cc1O)CCNC21CSC2c3c(OC(C)=O)c(C)c4c(c3C(COC1=O)N1C(O)C3Cc5cc(C)c(OC)c(O)c5C(C21)N3C)OCO4 and stop.
Outgoing: < 9.49 nM

All values here come from PubChem BioAssay AID1845195.
